This section lists MIC readings for Streptococcus bovis A-5169.
PROPERTY_LABEL: MIC (µg/mL)

[[record]]
compound = "CC[C@H]1OC(=O)[C@H](C)[C@@H](O[C@H]2C[C@@](C)(OC)[C@@H](O)[C@H](C)O2)[C@H](C)[C@@H](O[C@@H]2O[C@H](C)C[C@H](N(C)C)[C@H]2O)[C@](C)(OCC(O)Cn2ccnc2)C[C@@H](C)C(=O)[C@H](C)[C@@H](O)[C@]1(C)O (stereo partly shown)"
output_unit = "µg/mL"
experimental_result = 0.05

[[record]]
compound = "CC[C@H]1OC(=O)[C@H](C)[C@@H](O[C@H]2C[C@@](C)(OC)[C@@H](O)[C@H](C)O2)[C@H](C)[C@@H](O[C@@H]2O[C@H](C)C[C@H](N(C)C)[C@H]2O)[C@](C)(OCC(O)CN=[N+]=[N-])C[C@@H](C)C(=O)[C@H](C)[C@@H](O)[C@]1(C)O (stereo partly shown)"
output_unit = "µg/mL"
experimental_result = 0.2

[[record]]
compound = "CC[C@H]1OC(=O)[C@H](C)[C@@H](O[C@H]2C[C@@](C)(OC)[C@@H](O)[C@H](C)O2)[C@H](C)[C@@H](O[C@@H]2O[C@H](C)C[C@H](N(C)C)[C@H]2O)[C@](C)(OCC=NO)C[C@@H](C)C(=O)[C@H](C)[C@@H](O)[C@]1(C)O"
output_unit = "µg/mL"
experimental_result = 0.05

[[record]]
compound = "CC[C@H]1OC(=O)[C@H](C)[C@@H](O[C@H]2C[C@@](C)(OC)[C@@H](O)[C@H](C)O2)[C@H](C)[C@@H](O[C@@H]2O[C@H](C)C[C@H](N(C)C)[C@H]2O)[C@](C)(OCC(O)CO)C[C@@H](C)C(=O)[C@H](C)[C@@H](O)[C@]1(C)O (stereo partly shown)"
output_unit = "µg/mL"
experimental_result = 0.2

[[record]]
compound = "CC[C@H]1OC(=O)[C@H](C)[C@@H](O[C@H]2C[C@@](C)(OC)[C@@H](O)[C@H](C)O2)[C@H](C)[C@@H](O[C@@H]2O[C@H](C)C[C@H](N(C)C)[C@H]2O)[C@](C)(OCC(O)CNCc2ccccc2)C[C@@H](C)C(=O)[C@H](C)[C@@H](O)[C@]1(C)O (stereo partly shown)"
output_unit = "µg/mL"
experimental_result = 0.01

[[record]]
compound = "C#CCO[C@]1(C)C[C@@H](C)C(=O)[C@H](C)[C@@H](O)[C@](C)(O)[C@@H](CC)OC(=O)[C@H](C)[C@@H](O[C@H]2C[C@@](C)(OC)[C@@H](O)[C@H](C)O2)[C@H](C)[C@H]1O[C@@H]1O[C@H](C)C[C@H](N(C)C)[C@H]1O"
output_unit = "µg/mL"
experimental_result = 0.01

[[record]]
compound = "CCCO[C@]1(C)C[C@@H](C)C(=O)[C@H](C)[C@@H](O)[C@](C)(O)[C@@H](CC)OC(=O)[C@H](C)[C@@H](O[C@H]2C[C@@](C)(OC)[C@@H](O)[C@H](C)O2)[C@H](C)[C@H]1O[C@@H]1O[C@H](C)C[C@H](N(C)C)[C@H]1O"
output_unit = "µg/mL"
experimental_result = 0.05


Source: patent EP1007530B1
